- Test system: SF-295
- Procedure Summary: Cytotoxicity against human SF295 cells
- Format: functional
Quantity Kind: GI50 (µM)
One number for each entry, in µM.

OCCCCC#Cc1ccccc1C#Cc1ccc(C(F)(F)F)cc1: 19.1

Report GI50 for every entry below.
1. OCCC#Cc1ccccc1C#Cc1ccccc1
2. CSc1ccccc1C#Cc1ccccc1C#CCCCCO
3. OCC#Cc1ccccc1C#Cc1ccccc1

[28.1, 1.5, 20.6]

----------
Please provide measured GI50 for the entries that follow.
- Tested on: LOX IMVI
- Procedure Summary: Cytotoxicity against human LOX IMVI cells
- Assay type: functional
Give bare numbers, in µM.

COc1cccc(C#Cc2ccccc2C#CCCCCO)c1: 6.3
OCCCCC#Cc1ccccc1C#Cc1ccccc1C(F)(F)F: 4.9
CSc1ccccc1C#Cc1ccccc1C#CCCCCO: 5.8
OCCCCC#Cc1ccccc1C#Cc1cccs1: 13.9
N#Cc1ccc(C#Cc2ccccc2C#CCCCCO)cc1: 18.3
OCCCCC#Cc1ccccc1C#Cc1ccc(C(F)(F)F)cc1: 17.1

Here is the next item to consider.
Which measured GI50 belongs to OCCCCC#Cc1ccccc1C#Cc1ccccn1 , tested on LOX IMVI? 27.7
